Molecular target: mutant HIV PR (Mutant 10) (Human immunodeficiency virus type 1 group M subtype B)
Assay: HIV PR inhibition assay, Mutant 10
Details: read-out: Ki Mutant 10; recombinant mutant HIV PR, fluorogenic substrate, pH 6.5
Exercise: state measured Ki for each of the compounds provided.

Below, each entry is followed by its recorded Ki result.
1. CCCN(C=C1C(=O)Nc2ccc(S(=O)(=O)N(CC(C)C)CC(O)C(Cc3ccccc3)NC(=O)OC3COC4OCCC34)cc21)CC (centres unmarked) : < 1 nM
2. CC(C)CN(CC(O)C(Cc1ccccc1)NC(=O)OC1COC2OCCC12)S(=O)(=O)c1ccc2c(c1)C(=CNC1CCCCC1)C(=O)N2 (centres unmarked) : 1.2 nM
3. CNC(C)=C1C(=O)Nc2ccc(S(=O)(=O)N(CC(C)C)CC(O)C(Cc3ccccc3)NC(=O)OC3COC4OCCC34)cc21 (centres unmarked) : < 1 nM

Please give Ki for each item listed below.
1. CC(C)CN(CC(O)C(Cc1ccccc1)NC(=O)OC1COC2OCCC12)S(=O)(=O)c1ccc2c(c1)C(=CNCC1CCCCC1)C(=O)N2 (centres unmarked)
2. CC(C)CN(C[C@@H](O)[C@H](Cc1ccccc1)NC(=O)O[C@H]1CO[C@H]2OCC[C@H]21)S(=O)(=O)c1ccc2c(c1)/C(=C/NCC(C)(C)C)C(=O)N2

Response:
["< 1 nM", "< 1 nM"]

List Ki for every entry below, keeping the order given.
1. CCCN(C=C1C(=O)Nc2ccc(S(=O)(=O)N(CC(C)C)CC(O)C(Cc3ccccc3)NC(=O)OC3COC4OCCC34)cc21)CCC (centres unmarked)
2. CCCCNC=C1C(=O)Nc2ccc(S(=O)(=O)N(CC(C)C)CC(O)C(Cc3ccccc3)NC(=O)OC3COC4OCCC34)cc21 (centres unmarked)
3. CCCCN(C=C1C(=O)Nc2ccc(S(=O)(=O)N(CC(C)C)CC(O)C(Cc3ccccc3)NC(=O)OC3COC4OCCC34)cc21)CC (centres unmarked)

Response:
["< 1 nM", "< 1 nM", "1.9 nM"]

----------
Test system: HIVmutant10 (16 mutations)
Assay: Antiviral assay in MT-4 cells (MTT), mutant 10 virus
Type: cell-based, HIV
Details: Human immunodeficiency virus 1, MT4, 120 h, read-out: IC50 Mutant 10
Field: pIC50. Provide a value for each of the compounds that follow.
Numbers only, as −log10 of the molar value.

Previously resolved entries follow.
1) CCCCN(C=C1C(=O)Nc2ccc(S(=O)(=O)N(CC(C)C)CC(O)C(Cc3ccccc3)NC(=O)OC3COC4OCCC34)cc21)CC (centres unmarked) : 7.22
2) CC(C)CN(CC(O)C(Cc1ccccc1)NC(=O)OC1COC2OCCC12)S(=O)(=O)c1ccc2c(c1)C(=CNC1CCCCC1)C(=O)N2 (centres unmarked) : 6.96
3) CC(C)CN(CC(O)C(Cc1ccccc1)NC(=O)OC1COC2OCCC12)S(=O)(=O)c1ccc2c(c1)C(=CNCCCCc1ccccc1)C(=O)N2 (centres unmarked) : 6.98
4) CC(C)CN(CC(O)C(Cc1ccccc1)NC(=O)OC1COC2OCCC12)S(=O)(=O)c1ccc2c(c1)C(=CNCc1ccc3ccccc3n1)C(=O)N2 (centres unmarked) : 7.57
5) CC(C)CN(CC(O)C(Cc1ccccc1)NC(=O)OC1COC2OCCC12)S(=O)(=O)c1ccc2c(c1)C(=CNCCc1ccccn1)C(=O)N2 (centres unmarked) : 7.55

Here are 6 compounds. What values of pIC50 were reported for them?
1. CC(C)CN(C[C@@H](O)[C@H](Cc1ccccc1)NC(=O)O[C@H]1CO[C@H]2OCC[C@H]21)S(=O)(=O)c1ccc2c(c1)/C(=C/N(C)C)C(=O)N2
2. CC(C)CN(C[C@@H](O)[C@H](Cc1ccccc1)NC(=O)O[C@H]1CO[C@H]2OCC[C@H]21)S(=O)(=O)c1ccc2c(c1)/C(=C/NCC(C)(C)C)C(=O)N2
3. CC(C)CN(CC(O)C(Cc1ccccc1)NC(=O)OC1COC2OCCC12)S(=O)(=O)c1ccc2c(c1)C(=CNC1CCC1)C(=O)N2 (centres unmarked)
4. CC(C)CNC=C1C(=O)Nc2ccc(S(=O)(=O)N(CC(C)C)CC(O)C(Cc3ccccc3)NC(=O)OC3COC4OCCC34)cc21 (centres unmarked)
5. CC(C)CN(CC(O)C(Cc1ccccc1)NC(=O)OC1COC2OCCC12)S(=O)(=O)c1ccc2c(c1)C(=CNCC1CCCCC1)C(=O)N2 (centres unmarked)
6. CCCN(C=C1C(=O)Nc2ccc(S(=O)(=O)N(CC(C)C)CC(O)C(Cc3ccccc3)NC(=O)OC3COC4OCCC34)cc21)CC (centres unmarked)

Response:
[7.15, 7.57, 6.94, 7.48, 7.40, 7.22]

----------
Molecular target: wild type HIV PR (Human immunodeficiency virus type 1 group M subtype B)
Construct: Recombinant wild type and mutant HIV PRs were expressed using pET21 vector (Novagen) in E. coli cells
Assay: HIV PR inhibition assay, wild type
Protocol: Expression and purification of WT and mutant HIV PR. Recombinant wild type and mutant HIV PRs were expressed using pET21 vector (Novagen) in E. coli cells, and purified and refolded as described previously (Gulnik et al, 1995). […] Inhibition constants were determined using the fluorogenic substrate ArgGlu(EDANS)[…]DABCYL)Arg (Amichem, USA). […] The initial rate of hydrolysis was calculated by first-degree polynomial fit using SoftMAX operating software. […]
pKi: −log10 of the molar value.
Please provide measured pKi for the entries that follow.

Below are worked cases with known answers.
1. CCCCNC=C1C(=O)Nc2ccc(S(=O)(=O)N(CC(C)C)CC(O)C(Cc3ccccc3)NC(=O)OC3COC4OCCC34)cc21 (centres unmarked) : > 10.00
2. CC(C)CN(C[C@@H](O)[C@H](Cc1ccccc1)NC(=O)O[C@H]1CO[C@H]2OCC[C@H]21)S(=O)(=O)c1ccc2c(c1)/C(=C/NCC(C)(C)C)C(=O)N2 : > 10.00
3. CC(C)CCNC=C1C(=O)Nc2ccc(S(=O)(=O)N(CC(C)C)CC(O)C(Cc3ccccc3)NC(=O)OC3COC4OCCC34)cc21 (centres unmarked) : > 10.00

Could I get pKi for every one of these entries?
1. CC(C)CN(CC(O)C(Cc1ccccc1)NC(=O)OC1COC2OCCC12)S(=O)(=O)c1ccc2c(c1)C(=CNCC1CCCCC1)C(=O)N2 (centres unmarked)
2. CC(C)CC(C)NC=C1C(=O)Nc2ccc(S(=O)(=O)N(CC(C)C)CC(O)C(Cc3ccccc3)NC(=O)OC3COC4OCCC34)cc21 (centres unmarked)

Response:
1: > 10.00; 2: 9.77

----------
Biological target: wild type HIV PR (Human immunodeficiency virus type 1 group M subtype B)
Construct: Recombinant wild type and mutant HIV PRs were expressed using pET21 vector (Novagen) in E. coli cells
Test: HIV PR inhibition assay, wild type
QUANTITY_MEASURED: Ki

Examples from the recorded data:
1) CC(C)CN(C[C@@H](O)[C@H](Cc1ccccc1)NC(=O)O[C@H]1CO[C@H]2OCC[C@H]21)S(=O)(=O)c1ccc2c(c1)/C(=C/N(C)C)C(=O)N2 [Compound 21] : < 0.1 nM
2) CCc1cccc(NC=C2C(=O)Nc3ccc(S(=O)(=O)N(CC(C)C)CC(O)C(Cc4ccccc4)NC(=O)OC4COC5OCCC45)cc32)n1 (stereo not drawn) [Compound 112] : < 0.1 nM
3) CCCC(C)NC=C1C(=O)Nc2ccc(S(=O)(=O)N(CC(C)C)CC(O)C(Cc3ccccc3)NC(=O)OC3COC4OCCC34)cc21 (stereo not drawn) [Compound 108] : < 0.1 nM
4) CC(C)CN(CC(O)C(Cc1ccccc1)NC(=O)OC1COC2OCCC12)S(=O)(=O)c1ccc2c(c1)C(=CNCCc1ccccn1)C(=O)N2 (stereo not drawn) [Compound 76] : < 0.1 nM
5) C=CCN(C=C1C(=O)Nc2ccc(S(=O)(=O)N(CC(C)C)CC(O)C(Cc3ccccc3)NC(=O)OC3COC4OCCC34)cc21)C1CCCC1 (stereo not drawn) [Compound 116] : < 0.1 nM

The record that follows has no Ki shown yet.
Query: Respond only with Ki recorded for CCOC(=O)C(NC=C1C(=O)Nc2ccc(S(=O)(=O)N(CC(C)C)CC(O)C(Cc3ccccc3)NC(=O)OC3COC4OCCC34)cc21)C(C)C (stereo not drawn) [Compound 133]
Response: 0.14 nM

----------
Could you please report measured IC50 for the items listed next?
Tested on: HIVmutant9 (10 mutations)
Experiment: Antiviral assay in MT-4 cells (MTT), mutant 9 virus
Type: cell-based, HIV
Settings: Human immunodeficiency virus 1, MT4, 120 h, read-out: IC50 Mutant 9
Experimental: MT-4 cells were obtained from the AIDS Research and Reference Reagent Program (ARRRP, Division of AIDS, NIAID, NIH: MT-4 from Dr. D. Richman). […] The potency of test compound was determined as previously described (ref 1-3) with minor modifications. […] Absorbance was monitored in a microplate reader (Spectramax, Molecular Devices) at 540 nm and 690 nm. […]

1) CC(C)CNC=C1C(=O)Nc2ccc(S(=O)(=O)N(CC(C)C)CC(O)C(Cc3ccccc3)NC(=O)OC3COC4OCCC34)cc21 (centres unmarked) [Compound 60] : 9.5 nM
2) CC(C)CC(C)NC=C1C(=O)Nc2ccc(S(=O)(=O)N(CC(C)C)CC(O)C(Cc3ccccc3)NC(=O)OC3COC4OCCC34)cc21 (centres unmarked) [Compound 104] : 16 nM
3) CC(C)CN(CC(O)C(Cc1ccccc1)NC(=O)OC1COC2OCCC12)S(=O)(=O)c1ccc2c(c1)C(=CNCCCCc1ccccc1)C(=O)N2 (centres unmarked) [Compound 78] : 17 nM
4) CC(C)CN(CC(O)C(Cc1ccccc1)NC(=O)OC1COC2OCCC12)S(=O)(=O)c1ccc2c(c1)C(=CNC1CCCCC1)C(=O)N2 (centres unmarked) [Compound 107] : 28 nM
5) CCNC(C)=C1C(=O)Nc2ccc(S(=O)(=O)N(CC(C)C)CC(O)C(Cc3ccccc3)NC(=O)OC3COC4OCCC34)cc21 (centres unmarked) [Compound 43] : 9 nM
6) CCCN(C=C1C(=O)Nc2ccc(S(=O)(=O)N(CC(C)C)CC(O)C(Cc3ccccc3)NC(=O)OC3COC4OCCC34)cc21)CC (centres unmarked) [Compound 106] : 20 nM
7) CC(C)CN(CC(O)C(Cc1ccccc1)NC(=O)OC1COC2OCCC12)S(=O)(=O)c1ccc2c(c1)C(=CNCC(F)(F)C(F)(F)C(F)(F)F)C(=O)N2 (centres unmarked) [Compound 125] : 24 nM
8) CCOC(=O)CN(C=C1C(=O)Nc2ccc(S(=O)(=O)N(CC(C)C)CC(O)C(Cc3ccccc3)NC(=O)OC3COC4OCCC34)cc21)Cc1ccccc1 (centres unmarked) [Compound 138] : 15 nM
9) CNC(C)=C1C(=O)Nc2ccc(S(=O)(=O)N(CC(C)C)CC(O)C(Cc3ccccc3)NC(=O)OC3COC4OCCC34)cc21 (centres unmarked) [Compound 41] : 17 nM
10) CC(C)CN(C[C@@H](O)[C@H](Cc1ccccc1)NC(=O)O[C@H]1CO[C@H]2OCC[C@H]21)S(=O)(=O)c1ccc2c(c1)/C(=C/N(C)C)C(=O)N2 [Compound 21] : 65 nM

Pending compound:
Query: Note down IC50 recorded for CCCN(C=C1C(=O)Nc2ccc(S(=O)(=O)N(CC(C)C)CC(O)C(Cc3ccccc3)NC(=O)OC3COC4OCCC34)cc21)CCC (centres unmarked) [Compound 32]
Response: 12 nM
